- studyTarget: T1, human melanocortin 4 receptor (human, UniProt P32245 1-332)
- T1 construct: whole, on cells; cAMP assay on whole BHK cells; also called MC4R; human MC4 receptor
- T1 sequence (P32245 whole entry): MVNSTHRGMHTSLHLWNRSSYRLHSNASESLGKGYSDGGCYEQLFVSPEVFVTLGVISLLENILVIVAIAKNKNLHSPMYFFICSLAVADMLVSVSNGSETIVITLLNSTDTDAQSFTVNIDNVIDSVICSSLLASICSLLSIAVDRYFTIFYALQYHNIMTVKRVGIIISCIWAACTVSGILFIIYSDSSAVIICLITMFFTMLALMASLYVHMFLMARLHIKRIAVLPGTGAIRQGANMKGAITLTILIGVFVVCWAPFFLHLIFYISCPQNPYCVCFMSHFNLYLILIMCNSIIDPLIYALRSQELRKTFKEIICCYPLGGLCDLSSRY
- assayDetails: competition with 125-NDP-α-MSH, BHK human MC4R membranes
Positions of bridges follow the written chain, without caps; N, C: chain ends. Non-standard residues stand in square brackets, D forms with d. Aib = CC(C)(N)C(=O)O
Below, each entry is listed alongside its reported pKi.
Friendly reminder that pKi comes from taking -log10 of the concentration in mol/L.

* cyclo(C[Aib]P[dF]RWC[Aib]P[dF]RW) (disulfide 1-7; SMILES CC1(C)NC(=O)[C@@H]2CSSC[C@H](NC(=O)[C@H](Cc3c[nH]c4ccccc34)NC(=O)[C@H](CCCNC(=N)N)NC(=O)[C@@H](Cc3ccccc3)NC(=O)[C@@H]3CCCN3C1=O)C(=O)NC(C)(C)C(=O)N1CCC[C@H]1C(=O)N[C@H](Cc1ccccc1)C(=O)N[C@@H](CCCNC(=N)N)C(=O)N[C@@H](Cc1c[nH]c3ccccc13)C(=O)N2, also called c[c[Cys-Aib-Pro-D-Phe-Arg-Trp-Cys]-Aib-Pro-D-Phe-Arg-Trp]) [Chem. 39] | 8.74

Proceeding to the next binder to report its pKi.
response.value for cyclo(CH[dF]RWCH[dF]RW) (disulfide 1-6; SMILES N=C(N)NCCC[C@@H]1NC(=O)[C@@H](Cc2ccccc2)NC(=O)[C@H](Cc2c[nH]cn2)NC(=O)[C@@H]2CSSC[C@H](NC(=O)[C@H](Cc3c[nH]c4ccccc34)NC1=O)C(=O)N[C@@H](Cc1c[nH]cn1)C(=O)N[C@H](Cc1ccccc1)C(=O)N[C@@H](CCCNC(=N)N)C(=O)N[C@@H](Cc1c[nH]c3ccccc13)C(=O)N2, also called c[c[Cys-His-D-Phe-Arg-Trp-Cys]-His-D-Phe-Arg-Trp]) [Chem. 49] (field: pKi) = 8.41
